# TGT: T1, human EphA4 (binding to human Ephrin A5) (Homo sapiens, UniProt P54764)
# T1 construct: made in house; not restated for the human SEAP-His protein
# PROCEDURE_DETAILS: Human EphA4-human ligand binding inhibition ELISA of humanized antibodies (biotinylated Ephrin A5-Fc)
# CONDITIONS_USED: biotinylated human Ephrin A5-Fc 0.7 nM
# Description: Each anti-EphA4 monoclonal humanized antibody obtained in Example 16 was evaluated for its inhibitory activity against the binding between human EphA4 and its human ligand according to the following steps. Each well of a 96-well plate (Nunc) was coated with an anti-alkaline phosphatase antibody (Thermo Fisher Scientific). […] The absorbance at 450 nm was read using a microplate reader (PerkinElmer).
METRIC: pIC50
// field semantics: pIC50 = negative decimal log of concentration (mol/L)

molecule="69 (antibody, V domains shown, synthetic humanized antibody heavy chain variable region sequence; synthetic humanized antibody light chain variable region sequence) VH: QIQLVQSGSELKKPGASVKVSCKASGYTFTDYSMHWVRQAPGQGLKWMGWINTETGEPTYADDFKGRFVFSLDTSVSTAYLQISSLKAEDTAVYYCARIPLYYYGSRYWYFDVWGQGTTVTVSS VL: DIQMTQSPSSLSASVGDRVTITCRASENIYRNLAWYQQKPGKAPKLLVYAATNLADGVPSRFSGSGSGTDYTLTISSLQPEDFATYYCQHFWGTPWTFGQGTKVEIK" metric=pIC50 reported_result=8.51

Turning now to a further record.
Provide measured pIC50 value, entry: 96 (antibody, V domains shown, constant regions without entry; synthetic humanized antibody light chain variable region sequence; synthetic humanized antibody heavy chain variable region sequence) VL: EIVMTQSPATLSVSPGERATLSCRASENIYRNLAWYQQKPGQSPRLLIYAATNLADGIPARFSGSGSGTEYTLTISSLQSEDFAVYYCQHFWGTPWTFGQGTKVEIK VH: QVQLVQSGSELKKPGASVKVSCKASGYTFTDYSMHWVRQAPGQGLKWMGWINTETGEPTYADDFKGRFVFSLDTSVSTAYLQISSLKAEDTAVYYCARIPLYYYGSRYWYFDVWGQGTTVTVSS
8.43
